# experimental.system: PputG6PDH-1 (Pseudomonas putida)
# test.summary: initial rates, NAD
# Format: biochemical
property.label: Ki (µM)

{"line.notation": "NC(=O)C1=CN([C@@H]2O[C@H](COP(=O)(O)OP(=O)(O)OC[C@H]3O[C@@H](n4cnc5c(N)ncnc54)[C@H](OP(=O)(O)O)[C@@H]3O)[C@@H](O)[C@H]2O)C=CC1", "property.label": "Ki", "units.symbol": "µM", "recorded.result": 18}

---

# experimental.system: PputG6PDH-1 (Pseudomonas putida, UniProt Q88P31)
# Sequence (Q88P31 1-489): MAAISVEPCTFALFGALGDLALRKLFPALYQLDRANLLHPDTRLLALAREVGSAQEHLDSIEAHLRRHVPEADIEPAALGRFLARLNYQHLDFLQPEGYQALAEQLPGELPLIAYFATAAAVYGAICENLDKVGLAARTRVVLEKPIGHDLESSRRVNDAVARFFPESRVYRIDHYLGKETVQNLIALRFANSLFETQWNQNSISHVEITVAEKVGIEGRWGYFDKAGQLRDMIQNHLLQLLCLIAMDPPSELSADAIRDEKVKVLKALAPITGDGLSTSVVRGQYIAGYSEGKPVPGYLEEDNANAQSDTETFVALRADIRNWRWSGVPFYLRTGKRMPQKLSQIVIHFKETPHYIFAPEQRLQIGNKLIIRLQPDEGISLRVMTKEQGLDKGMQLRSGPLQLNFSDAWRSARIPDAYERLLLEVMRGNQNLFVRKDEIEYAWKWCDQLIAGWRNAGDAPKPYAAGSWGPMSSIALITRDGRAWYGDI
# test.summary: progress curves at […] nm, product inhibition, global fit
# Assay type: biochemical
pKi: −log10 of the molar value.
property.label: pKi

{"line.notation": "NC(=O)C1=CN([C@@H]2O[C@H](COP(=O)(O)OP(=O)(O)OC[C@H]3O[C@@H](n4cnc5c(N)ncnc54)[C@H](O)[C@@H]3O)[C@@H](O)[C@H]2O)C=CC1", "recorded.result": 3.32}

The values you see were collected from paper PMC4669411.
